measured.property: pKi
Value format note: pKi is -log10 of concentration (mol/L); just state the number.

Please look at "O=C(NS(=O)(=O)c1cccc(F)c1)c1ccc(N2CCN(Cc3ccccc3-c3ccc(Cl)cc3)CC2)cc1" and tell me its recorded pKi on GST-Bcl-2 (Homo sapiens, UniProt P10415). 6.55

Please look at "O=C(NS(=O)(=O)c1ccc(Br)cc1)c1ccc(N2CCN(Cc3ccccc3-c3ccc(Cl)cc3)CC2)cc1" and tell me its recorded pKi on GST-Bcl-2 (Homo sapiens, UniProt P10415). 6.68

Please look at "O=C(NS(=O)(=O)c1ccc(F)cc1)c1ccc(N2CCN(Cc3ccccc3-c3ccc(Cl)cc3)CC2)cc1" and tell me its recorded pKi on GST-Bcl-2 (Homo sapiens, UniProt P10415). 6.39

Please look at "O=C(NS(=O)(=O)c1cccc([N+](=O)[O-])c1)c1ccc(N2CCN(Cc3ccccc3-c3ccc(Cl)cc3)CC2)cc1" and tell me its recorded pKi on GST-Bcl-2 (Homo sapiens, UniProt P10415). 6.73

Please look at "O=C(NS(=O)(=O)c1cccc([N+](=O)[O-])c1)c1ccc(N2CCN(Cc3ccccc3-c3ccc(Cl)cc3)CC2)cc1OCCc1ccccc1" and tell me its recorded pKi on GST-Bcl-2 (Homo sapiens, UniProt P10415). 6.01

Please look at "CC1(C)CCC(CN2CCN(c3ccc(C(=O)NS(=O)(=O)c4cccc([N+](=O)[O-])c4)c(Oc4ccc5[nH]ccc5c4)c3)CC2)=C(c2ccc(Cl)cc2)C1" and tell me its recorded pKi on GST-Bcl-2 (Homo sapiens, UniProt P10415). 9.68

###

Please respond with reported pKi for every item in the list.
- target.under.test: GST-Bcl-2 (Homo sapiens)
- Sequence (P10415 whole entry): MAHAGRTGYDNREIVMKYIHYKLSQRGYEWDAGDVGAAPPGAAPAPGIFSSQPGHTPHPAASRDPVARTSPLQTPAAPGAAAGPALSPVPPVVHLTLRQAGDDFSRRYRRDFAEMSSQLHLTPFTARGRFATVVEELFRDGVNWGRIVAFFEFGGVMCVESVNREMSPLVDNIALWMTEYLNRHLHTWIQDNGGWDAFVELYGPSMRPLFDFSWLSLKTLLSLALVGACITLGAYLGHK
Value format note: pKi is -log10 of concentration (mol/L); just state the number.

For O=C(NS(=O)(=O)c1cccc([N+](=O)[O-])c1)c1ccc(N2CCN(Cc3ccccc3-c3ccc(Cl)cc3)CC2)cc1Cc1ccccc1 [Example 15] , write its pKi. 7.32

For O=C(NS(=O)(=O)c1cccc([N+](=O)[O-])c1)c1ccc(N2CCN(Cc3ccccc3-c3ccc(Cl)cc3)CC2)cc1[S+]([O-])c1ccccc1 (centres unmarked) [Example 21] , write its pKi. 7.06

For CN(C)CCOc1cccc(-c2ccc(Cl)cc2)c1CN1CCN(c2ccc(C(=O)NS(=O)(=O)c3cccc([N+](=O)[O-])c3)c(Oc3cccc4[nH]ccc34)c2)CC1 [Example 28] , write its pKi. 9.90

For CC1(C)CCC(CN2CCN(c3ccc(C(=O)NS(=O)(=O)c4cccc(C#N)c4)c(Oc4ccc5[nH]ccc5c4)c3)CC2)=C(c2ccc(Cl)cc2)C1 [Example 32] , write its pKi. 8.23

For O=C(NS(=O)(=O)c1ccc([N+](=O)[O-])cc1)c1ccc(N2CCN(Cc3ccccc3-c3ccc(Cl)cc3)CC2)cc1 [Example 16] , write its pKi. 6.56

For CC1(C)CCC(CN2CCN(c3ccc(C(=O)NS(=O)(=O)c4ccc(Cl)c([N+](=O)[O-])c4)c(Oc4cccc5[nH]ncc45)c3)CC2)=C(c2ccc(Cl)cc2)C1 [Example 38] , write its pKi. 9.76

For CC1(C)CCC(CN2CCN(c3ccc(C(=O)NS(=O)(=O)c4cccc(C(F)(F)F)c4)c(Oc4ccc5[nH]ccc5c4)c3)CC2)=C(c2ccc(Cl)cc2)C1 [Example 33] , write its pKi. 8.39

For O=C(NS(=O)(=O)c1cccc([N+](=O)[O-])c1)c1ccc(N2CCN(Cc3ccccc3-c3ccc(Cl)cc3)CC2)cc1CCc1ccccc1 [Example 18] , write its pKi. 6.13

For CC1(C)CCC(CN2CCN(c3ccc(C(=O)NS(=O)(=O)c4cccc(F)c4)c(Oc4ccc5[nH]ccc5c4)c3)CC2)=C(c2ccc(Cl)cc2)C1 [Example 35] , write its pKi. 8.05

For O=C(NS(=O)(=O)c1cccc([N+](=O)[O-])c1)c1ccc(N2CCN(Cc3ccccc3-c3ccc(Cl)cc3)CC2)cc1Oc1ccccc1 [Example 9] , write its pKi. 7.58

For O=C(NS(=O)(=O)c1cccc(F)c1)c1ccc(N2CCN(Cc3ccccc3-c3ccc(Cl)cc3)CC2)cc1Oc1ccccc1 [Example 23] , write its pKi. 7.56

For CC1(C)CCC(CN2CCN(c3ccc(C(=O)NS(=O)(=O)c4ccccc4)c(Oc4ccc5[nH]ccc5c4)c3)CC2)=C(c2ccc(Cl)cc2)C1 [Example 31] , write its pKi. 7.67

For CC1(C)CCC(CN2CCN(c3ccc(C(=O)NS(=O)(=O)c4cccc(Cl)c4)c(Oc4ccc5[nH]ccc5c4)c3)CC2)=C(c2ccc(Cl)cc2)C1 [Example 34] , write its pKi. 8.29

For O=C(NS(=O)(=O)c1cccc([N+](=O)[O-])c1)c1ccc(N2CCN(Cc3ccccc3-c3ccc(Cl)cc3)CC2)cc1NCc1ccccc1 [Example 14] , write its pKi. 6.13
